assay-text: growth suppression of beta-catenin knockout HCT116, pilot screen, human colon tumor cells (AID 823);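 further: 0% = wells killed by 20 µM Hyamine and 100% = untreated DMSO cell wells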
settings: CellTiter-Glo, 60 h, at 10 µM, stronger effect = lower value
Records with an inconclusive call do not appear.
Please note: viability exactly at 90% is -1. Only values below 90% get 1.

As a guide, the following entries are already answered.
Cc1ccc(Cl)cc1N1CCN(C(=O)COc2ccc(S(=O)(=O)NC(C)C)cc2)CC1
1
CCCCS(=O)CC(COCc1ccccc1)OC(=O)CSc1nc(C)cc(C)n1 (centres undefined)
-1

Does the reported viability of Cc1nn(-c2ccccc2)c2c1C(c1ccncc1)C(C#N)=C(N)O2 (centres undefined) stay below 90%?
-1

Criterion: viability strictly below 90%. Is it met by CC1CCc2nn(CC(=O)NCc3ccco3)cc2C1 (centres undefined) ?
-1

Take the molecule "Cc1ccc(-n2c3c(cc(C(=O)NCc4ccco4)c2=O)C(=O)CC(C)(C)C3)cc1" and say whether its viability is less than 90%.
1

----------
Would you kindly list viability increase for each of these molecules?
assay-text: viability gain of MRP-1-high H69AR cells under doxorubicin, pilot screen, MRP-1 activator project, CellTiter-Glo, duplicate (AID 807);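 further: compound pretreatment 18-22 h then 72 h combined with doxorubicin; 0% = doxorubicin alone and 100% = vehicle without doxorubicin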
settings: H69AR viability with doxorubicin, CellTiter-Glo luminescence; at 10 µM; stronger effect = higher value
One number for each entry, in %.

The cases that follow already have their viability increase on record.
Cc1cc(C)n(/N=C/c2cccc(O)c2)c(=O)c1C(N)=O
1.95
O=C(Cn1cc2c(n1)CCCCC2)NCCN1CCOCC1
-0.25
COc1cc(SC)ccc1C(=O)Nc1ccc2c(c1)OCCO2
-0.82
CCN(CC)S(=O)(=O)c1cc(C(=O)Nc2ccc(Cl)cn2)ccc1C
2.78
Nc1c(S(=O)(=O)c2ccccc2)c2nc3ccccc3nc2n1/N=C/c1ccco1
-5.63
Oc1ccccc1-c1nnc(COc2ccccc2)o1
-1.43

Would you be so kind as to report viability increase for each listed record?
1. CCSc1nc2c(cnn2-c2ccc(C)c(C)c2)c(=O)[nH]1
2. COc1ccc(Cl)cc1NC(=O)C1CCCO1 (centres undefined)
3. Cc1onc(-c2ccccc2Cl)c1C(=O)NCC1CCCO1 (centres undefined)
4. COc1ccccc1CNC(=O)CCn1c(=O)oc2ccccc21
5. c1nc2nc3c(c(N4CCOCC4)n2n1)CCCC3

-1
-2.12
-1.44
-3.05
-1.47

----------
assay-text: growth suppression of PTEN-deleted HCT116, pilot screen, cell-based, HCT116 clonal line, CellTiter-Glo (AID 824);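 further: 0% = 20 µM Hyamine control and 100% = vehicle cell control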
settings: 60 h, at 10 µM, stronger effect = lower value
Results filed as inconclusive are left out.
Values of viability strictly less than 90% map to Met, and values of at least 90% map to Not met.

# count of solved cases: 3
CCSc1nnc(NC(=O)c2ccccc2)s1
Not met
COC(=O)c1ccc(NC(=O)c2cccc(OC)c2)cc1
Met
O=C(NCCn1ccc2ccccc21)c1ccc2c(c1)OCO2
Not met

Please find the next compound below.
Bench note: check whether Cc1ccc2c(c1)c1c(n2CC(O)CN2C(=O)CNC2=O)C(=O)CCC1 (stereo not given) shows viability below 90%
Not met

----------
assay-text: growth suppression of beta-catenin knockout HCT116, pilot screen, human colon tumor cells (AID 823);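 further: 0% = wells killed by 20 µM Hyamine and 100% = untreated DMSO cell wells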
settings: CellTiter-Glo, 60 h, at 10 µM, stronger effect = lower value
Inconclusive results are not listed.
Field: label. Allowed values: fulfilled (viability < 90%) or not fulfilled (viability >= 90%).

Reference set, count: 10
N#Cc1nc(COc2ccc(Br)cc2)oc1N1CCCCCC1
fulfilled
CCCOC(=O)C1C2C=CC3(CN(c4ccc(Cl)c(F)c4)C(=O)C13)O2 (stereo not drawn)
not fulfilled
COc1cccc(C2NC(=O)NC(O)(C(F)(F)F)C2C(=O)c2cccnc2)c1OC (stereo not drawn)
not fulfilled
CCc1c(C)nc2[nH]nc(-c3ccccc3)n2c1=O
not fulfilled
CCN(CC)C(=O)Nc1cnc2ccccc2c1
not fulfilled
Cc1ccc2cc(CCNC(=O)C3CCCC3)c(=O)[nH]c2c1
not fulfilled
CCOC(=O)c1c(C2CCN(C(=O)OCC)CC2)nc2ccccn12
not fulfilled
CN(C)Cc1cc(C(C)(C)C)c(O)c(C(C)(C)C)c1
not fulfilled
CCC1Oc2nc(SC)nnc2-c2ccccc2N1C(=O)c1ccccc1 (stereo not drawn)
fulfilled
O=C(COC(=O)c1ccccc1Oc1ccccc1)NCc1ccco1
fulfilled

Does this compound meet the criterion viability < 90%? "CCN(CC)Cc1c(O)ccc2c(-c3ccccc3)cc(=O)oc12"
not fulfilled

Hello, I'm reviewing records and need to know if viability of "CC(C)N(C(=O)CN(C#N)c1nc(N(C)C)nc(N(C)C)n1)c1ccccc1" is below 90%. Could you check?
not fulfilled

# check: viability < 90% for "COc1cc(NC(=O)C(F)(F)F)cc(OC)c1"
not fulfilled

Please let me know if "COc1ccc(CCNC(=O)CCn2c(=O)oc3ccccc32)cc1OC" shows viability below 90%.
not fulfilled

Criterion: viability strictly below 90%. Is it met by CC1=C(C(=O)OC(C)C)C(c2cccnc2)n2ncnc2N1 (stereo not drawn) ?
not fulfilled

For this compound, is viability lower than 90%? "c1ccc(Cn2c(CSc3nnnn3-c3ccccc3)nc3ccccc32)cc1"
not fulfilled

Just wondering, is viability of CCCOc1ccc(C2c3c(oc4cc(C)c(C)cc4c3=O)C(=O)N2CCCN2CCOCC2)cc1 (stereo not drawn) below 90%?
fulfilled

viability strictly < 90% for this compound? "O=C(CSc1ncnc2nc[nH]c12)N1CCOCC1"
fulfilled

----------
assay-text: inhibitors of the yeast RAM network, pilot screen, dse1pr::URA3 reporter, 5-FOA selection (AID 869);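 further: 0% = DMSO wells with no growth and 100% = 10 µM 1-NA-PP1 with full growth; RAM network block rescues cells from 5-FOA so hits raise OD615 growth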
settings: S. cerevisiae dse1pr::URA3 5-FOA growth, OD615, 2 d; at 10 µM; stronger effect = higher value; strain carries analog-sensitive mutant Cbk1 kinase
test-readout: inhibition (%)
One number for each entry, in %.

Solved cases below.
OC(COc1cccc2ccccc12)CN1CCN(c2ccccn2)CC1 (centres undefined)
0.445
COc1ccc(NC(=O)Nc2c(C)n(C)n(-c3ccccc3)c2=O)cc1
0.655

Value sought for every listed compound: inhibition.
1. CCCc1cc(C(=O)Nc2cccc(Cl)c2)no1
2. COc1ccc(C2C3=C(CC(C)(C)CC3=O)Nc3c2c(=O)[nH]c(=O)n3Cc2ccccc2)cc1 (centres undefined)

[1.44, 1.65]

Would you mind listing inhibition for each of the following compounds?
1. Cc1ccc(C(c2sc3ncnn3c2O)N2CCCCC2)cc1 (centres undefined)
2. O=C(NCc1ccccn1)c1cc2ccccn2n1
3. Cn1cc(SCC(=O)NCc2ccc3c(c2)OCO3)c2ccccc21
4. COc1ccc2c(C)cc(=O)oc2c1C
5. CC1=C(C(=O)Nc2ccccc2)C(c2ccco2)C(C#N)=C(SCc2ccccc2)N1 (centres undefined)
6. CCOc1ccc(-n2c(SCC(=O)NCc3ccco3)nc3c([nH]c4ccccc43)c2=O)cc1
7. Oc1ccccc1CNc1nc2ccccc2n1CCN1CCCCC1

1: 0.04; 2: 0.245; 3: 1.17; 4: 1.96; 5: 3.18; 6: 1.14; 7: 2.86

I would be grateful if you could provide inhibition for each of the following entries.
1. COc1ccc(-c2nc3cnccn3c2Nc2ccc3c(c2)OCO3)cc1
2. COc1ccc(CSc2nnnn2Cc2ccccc2)cc1OC
3. COc1ccc2cc(CCNC(=O)C3CCCC3)c(=O)[nH]c2c1
4. COc1ccc(C2C(C(=O)NCc3ccccn3)c3ccccc3C(=O)N2C)cc1OC (centres undefined)
5. Cc1cc(C)cc(NC(=O)CSc2nc3c(c(=O)n2C)SC(C)C3)c1 (centres undefined)
6. CCOC(=O)N1CCN(c2cc(C)nc3nc(C)nn23)CC1
7. CCn1c(=O)c2cc(C(=O)N3CCOCC3)sc2c2ccccc21

1. -0.105
2. 0.785
3. 1.08
4. 1.01
5. 2.04
6. 3.44
7. 0.84

Fill blank: measured inhibition of the compound "CCCCCSc1nc2c(c(=O)[nH]c(=O)n2C)n1CC" is ____.
1.18

----------
assay-text: RAM signaling pathway blockade in yeast – S. cerevisiae, Pdr1DBD-CYC8 efflux-inhibited sensitized strain, primary screen (AID 1298);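 further: 0% = DMSO untreated cells without growth and 100% = 10 µM 1-NA-PP1 full growth; higher means more yeast growth rescued from 5-FOA killing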
settings: S. cerevisiae cbk1-as DSE1-URA3 strain, 5-FOA growth OD615, 2 d; at 50 µM; stronger effect = higher value
Please provide measured RAM network inhibition for the entries that follow.
One number for each entry, in %.

Some entries whose results are on file:
O=C1CC(Nc2ccc(N3CCOCC3)cc2)C(=O)N1c1ccccc1F (stereo not given)
5.38
CCOC(=O)Cc1csc(NC(=O)COc2ccc(N(C)S(=O)(=O)c3cccs3)cc2)n1
1.7

For every record below, what is its RAM network inhibition?
1. Cc1oc(-c2ccccc2F)nc1CS(=O)CC(=O)NCc1ccc2c(c1)OCO2 (stereo not given)
2. Cc1cccc(-c2nc(CS(=O)CC(=O)NCC3CCCO3)c(C)o2)c1 (stereo not given)
3. Cc1onc(-c2ccccc2Cl)c1C(=O)NCC1CCCO1 (stereo not given)

1. 7.13
2. 2.14
3. -0.74
